B1: Retinoic acid receptor RXR-alpha, residues 132 to 208; numbered along this chain, P19793 (parent)
chain: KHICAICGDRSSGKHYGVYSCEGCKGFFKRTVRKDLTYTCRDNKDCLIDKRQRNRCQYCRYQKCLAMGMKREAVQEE

- Variants of: B1
- Assay Explanation: abundance fitness (aPCA) (normalised: wild type 0, dead -1); higher = more abundant; growth selection in yeast, the domain comes from the species named
- Cond: Homo sapiens
Assay Readout: abundance fitness
Provide a numeric answer; units are not to be included.

Would you mind telling me what abundance fitness value was observed for G23L ?
-0.407

Recorded abundance fitness of R10C , please.
-0.053

Name the recorded abundance fitness for G13I .
-0.367

Suppose we examine the variant G13L ; what abundance fitness value has been reported?
-0.082

From: the Human Domainome abundance scans (Beltran et al. 2025)
